molecules and their reported Firefly, cmpd/DMSO repeat 2
# test.target: NR2F6 (Homo sapiens, UniProt P10588)
# Construct: expressed in transfected cells; also transient transfection
# Sequence (P10588 whole entry): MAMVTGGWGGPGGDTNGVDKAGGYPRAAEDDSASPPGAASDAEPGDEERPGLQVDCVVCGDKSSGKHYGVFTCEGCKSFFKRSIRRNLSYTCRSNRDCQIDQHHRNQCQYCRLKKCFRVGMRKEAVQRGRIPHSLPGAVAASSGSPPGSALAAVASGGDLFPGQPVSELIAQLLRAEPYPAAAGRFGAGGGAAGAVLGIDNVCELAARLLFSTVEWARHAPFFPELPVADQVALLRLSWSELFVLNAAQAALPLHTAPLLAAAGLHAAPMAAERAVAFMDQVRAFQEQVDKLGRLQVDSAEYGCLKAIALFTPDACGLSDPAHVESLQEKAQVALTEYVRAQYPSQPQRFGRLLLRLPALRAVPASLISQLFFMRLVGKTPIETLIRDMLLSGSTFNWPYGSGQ
# measurement.description: NR2F6 agonist screening, Firefly signal cmpd/DMSO
# Format: cell-based
# test.conditions: C11 analogs follow set (Tables 2-10), repeat 2
// keep it numeric: no unit symbol after the value

These solved cases illustrate the format of a correct answer.
> print(dat)
                                   molecule  observed.measurement
1  O=c1oc2ccc(Cl)cc2cc1S(=O)(=O)c1ccc(Cl)cc1 [Compound C147]                   2.9
2  O=c1oc2ccc(Br)cc2cc1S(=O)(=O)c1cccc(Cl)c1 [Compound C192]                   2.4
3  COc1ccc(S(=O)(=O)c2cc3cc(Cl)ccc3oc2=O)cc1OC [Compound C155]                  33.3
4  COc1ccc2oc(=O)c(S(=O)(=O)c3ccc(C(C)(C)C)cc3)cc2c1 [Compound C209]                   4.2
5  Cc1ccc(NC(=O)c2ccc3oc(=O)c(S(=O)(=O)c4ccc(Cl)cc4)cc3c2)c(C)c1 [Compound C166]                   4.2

Value lookup for Firefly, cmpd/DMSO repeat 2; key = Cc1ccc(NC(=O)c2ccc3oc(=O)c(S(=O)(=O)c4ccccc4)cc3c2)cc1 [Compound C161]
39.0

Value lookup for Firefly, cmpd/DMSO repeat 2; key = O=C(Nc1cccc(Cl)c1)c1ccc2oc(=O)c(S(=O)(=O)c3ccc(F)cc3)cc2c1 [Compound C128]
5.2

Value lookup for Firefly, cmpd/DMSO repeat 2; key = COc1ccc2cc(S(=O)(=O)c3cc(F)cc(F)c3)c(=O)oc2c1 [Compound C262]
2.2

Value lookup for Firefly, cmpd/DMSO repeat 2; key = CCOc1ccccc1NC(=O)c1ccc2oc(=O)c(S(=O)(=O)c3ccc(F)cc3)cc2c1 [Compound C181]
13.5

Value lookup for Firefly, cmpd/DMSO repeat 2; key = CC(C)(C)c1ccc(S(=O)(=O)c2cc3ccccc3oc2=O)cc1 [Compound C103]
1.4

Value lookup for Firefly, cmpd/DMSO repeat 2; key = COc1ccc2oc(=O)c(S(=O)(=O)c3ccc(F)c(C)c3)cc2c1 [Compound C225]
3.1

Value lookup for Firefly, cmpd/DMSO repeat 2; key = CC(C)(C)c1ccc(S(=O)(=O)c2cc3cc(F)ccc3oc2=O)cc1 [Compound C216]
1.0

----------
# measurement.description: PK in rat plasma
# Type: in vivo
# test.conditions: Table 36; PO plasma, 7.53 mg/kg
property.label: K el (h⁻¹)
Numeric answer only, unit h⁻¹ assumed.

Value lookup for K el; key = COCCN[C@H]1CS(=O)(=O)C[C@@H]1S(=O)(=O)c1ccc(Cl)cc1 [Compound D136]
0.75

----------
compounds and their reported fold induction at 2 µM
# Test system: Renilla
# measurement.description: Renilla signal in NR2F6 agonist screening, cmpd/DMSO
# Format: cell-based
# test.conditions: Renilla, 2 uM; read-out: Renilla F4, cmpd/DMSO (mean)
// keep it numeric: no unit symbol after the value

These solved cases illustrate the format of a correct answer.
> print(dat)
                                   compound          property.label  observed.measurement
1  O=S1(=O)C[C@H](NCCCc2ccccc2)[C@@H](S(=O)(=O)c2ccc(Cl)cc2)C1 [Compound D137]  fold induction at 2 µM                   1.1
2  O=S1(=O)C[C@H](NCC2CCCO2)[C@@H](S(=O)(=O)c2cccs2)C1 (stereo partly shown) [Compound D134]  fold induction at 2 µM                   1.2
3  CC(C)OCCCN[C@H]1CS(=O)(=O)C[C@@H]1S(=O)(=O)c1ccc(Cl)cc1 [Compound D138]  fold induction at 2 µM                     1
4  O=S1(=O)C[C@H](N2CCCC2)[C@@H](S(=O)(=O)c2cccs2)C1 [Compound D104]  fold induction at 2 µM                     2
5  O=S1(=O)C[C@H](NCc2ccco2)[C@@H](S(=O)(=O)c2cccs2)C1 [Compound D135]  fold induction at 2 µM                   1.2

Value lookup for fold induction at 2 µM; key = CC(C)CCN[C@H]1CS(=O)(=O)C[C@@H]1S(=O)(=O)c1ccc(Cl)cc1 [Compound D131]
1

Value lookup for fold induction at 2 µM; key = COCCN[C@H]1CS(=O)(=O)C[C@@H]1S(=O)(=O)c1ccc(Cl)cc1 [Compound D136]
1.1
